- assay_system: human NEU3 (Homo sapiens (Human), UniProt Q9UQ49)
- Sequence (Q9UQ49 whole entry): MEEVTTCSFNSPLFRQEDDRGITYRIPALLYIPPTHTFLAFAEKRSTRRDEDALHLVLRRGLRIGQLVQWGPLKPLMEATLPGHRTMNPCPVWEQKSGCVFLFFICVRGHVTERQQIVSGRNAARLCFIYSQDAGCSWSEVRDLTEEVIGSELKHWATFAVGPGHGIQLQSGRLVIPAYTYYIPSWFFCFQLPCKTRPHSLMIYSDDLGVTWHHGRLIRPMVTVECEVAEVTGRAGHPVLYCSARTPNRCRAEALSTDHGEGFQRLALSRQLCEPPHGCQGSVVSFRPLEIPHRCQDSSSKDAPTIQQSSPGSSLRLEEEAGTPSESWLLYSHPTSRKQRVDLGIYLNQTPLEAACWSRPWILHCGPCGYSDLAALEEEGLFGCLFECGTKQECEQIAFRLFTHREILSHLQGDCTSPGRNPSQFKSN
- assay_summary: human NEU3 sialidase inhibition
- conditions: read-out: NEU3 IC50; human NEU3
pIC50: −log10 of the molar value.
Assign class by pIC50: not lower than 5 means label 1; lower than 5 means label 0.

>>> print(df.to_string())
                                   compound  category
0  CC(=O)N[C@H]1[C@H]([C@@H](O)[C@@H](O)CNC(=O)CC(C)C)OC(C(=O)O)=C[C@@H]1O [Compound 7]   label 0
1  CC(=O)N[C@H]1[C@H]([C@H](O)[C@H](O)Cn2cc(-c3ccccc3)nn2)OC(C(=O)O)=C[C@@H]1O [Compound 16]   label 0
2  CCC(CC)O[C@@H]1CC(C(=O)O)C=C(n2cc(C(C)(C)O)nn2)[C@H]1NC(C)=O (stereo partly drawn) [Compound 30]   label 0
3  CC(=O)N[C@H]1C([C@@H](O)[C@@H](O)Cn2cc(CCCO)nn2)OC(C(=O)O)=C[C@@H]1O (stereo partly drawn) [Compound 56]   label 0
4  CC(=O)N[C@H]1C([C@@H](O)[C@@H](O)Cn2cc(CCO)nn2)OC(C(=O)O)=C[C@@H]1O (stereo partly drawn) [Compound 55]   label 0
5  CC(=O)N[C@H]1C([C@@H](O)[C@@H](O)Cn2cc(-c3ccccc3)nn2)OC(C(=O)O)=C[C@@H]1O (stereo partly drawn) [Compound 51]   label 1

---

- assay_system: human NEU4 (Homo sapiens (Human))
- assay_summary: human NEU4 sialidase inhibition
- conditions: read-out: NEU4 IC50; human NEU4
observation_type: IC50 (µM)

                                   compound  unit_label  limit_qualifier  reported_result
0  CC(=O)N[C@H]1[C@H]([C@@H](O)[C@@H](O)CNC(=O)CC(C)C)OC(C(=O)O)=C[C@@H]1O [Compound 7]          µM                >             1000
1  CC(=O)N[C@H]1[C@H]([C@@H](O)[C@@H](O)CNC(=O)C2CCCC2)OC(C(=O)O)=C[C@@H]1O [Compound 4]          µM                >             1000
2  CC(=O)N[C@H]1C([C@@H](O)[C@@H](O)Cn2cc(-c3ccccc3)nn2)OC(C(=O)O)=C[C@@H]1O (some centres unmarked) [Compound 51]          µM                =              2.3
3  CC(=O)N[C@H]1C([C@@H](O)[C@@H](O)Cn2cc(CCCO)nn2)OC(C(=O)O)=C[C@@H]1O (some centres unmarked) [Compound 56]          µM                =              2.1
4  CCCCC(=O)NC[C@H](O)[C@H](O)[C@@H]1OC(C(=O)O)=C[C@H](O)[C@H]1NC(C)=O [Compound 8]          µM                >             1000

---

- assay_system: human NEU4 (Homo sapiens (Human), UniProt Q8WWR8)
- Sequence (Q8WWR8 whole entry): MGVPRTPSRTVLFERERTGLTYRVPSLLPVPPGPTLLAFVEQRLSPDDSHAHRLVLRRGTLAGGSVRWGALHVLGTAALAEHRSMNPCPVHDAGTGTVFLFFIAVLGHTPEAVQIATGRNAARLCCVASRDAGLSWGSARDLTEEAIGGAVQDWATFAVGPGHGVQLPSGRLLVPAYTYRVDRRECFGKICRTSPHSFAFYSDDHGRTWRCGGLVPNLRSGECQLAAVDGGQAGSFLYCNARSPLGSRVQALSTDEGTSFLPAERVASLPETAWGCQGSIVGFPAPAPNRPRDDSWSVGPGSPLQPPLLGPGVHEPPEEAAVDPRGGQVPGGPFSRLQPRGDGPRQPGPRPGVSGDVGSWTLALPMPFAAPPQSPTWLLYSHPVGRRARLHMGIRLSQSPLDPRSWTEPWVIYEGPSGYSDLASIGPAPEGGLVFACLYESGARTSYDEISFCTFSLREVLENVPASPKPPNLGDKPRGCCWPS
- assay_summary: human NEU4 sialidase inhibition
- conditions: read-out: NEU4 IC50; human NEU4
pIC50: −log10 of the molar value.
// values below are reported pIC50
observation_type: pIC50

                                   molecule  observation_type  reported_result
0  CCOc1cn(C[C@H](O)[C@H](O)C2OC(C(=O)O)=C[C@H](O)[C@H]2NC(C)=O)nn1 (stereo partly shown)             pIC50             5.44
1  CC(=O)N[C@H]1C([C@@H](O)[C@@H](O)Cn2cc(CCO)nn2)OC(C(=O)O)=C[C@@H]1O (stereo partly shown)             pIC50             6.09
2  CC(=O)N[C@H]1C([C@@H](O)[C@@H](O)Cn2cc(OCc3ccccc3)nn2)OC(C(=O)O)=C[C@@H]1O (stereo partly shown)             pIC50             5.77
3  CC(=O)N[C@H]1[C@H]([C@@H](O)[C@@H](O)CNC(=O)c2ccccc2)OC(C(=O)O)=C[C@@H]1O             pIC50             3.09
4  CC(=O)N[C@H]1[C@H]([C@@H](O)[C@@H](O)CNC(=O)C2CC2)OC(C(=O)O)=C[C@@H]1O             pIC50             3.08
5  CC(=O)NC[C@H](O)[C@H](O)[C@@H]1OC(C(=O)O)=C[C@H](O)[C@H]1NC(C)=O             pIC50             3.24
6  CC(=O)N[C@H]1C([C@@H](O)[C@@H](O)Cn2cc(C(C)(C)O)nn2)OC(C(=O)O)=C[C@@H]1O (stereo partly shown)             pIC50             5.40

---

- assay_system: human NEU3 (Homo sapiens (Human), UniProt Q9UQ49)
- assay_summary: human NEU3 sialidase inhibition
- conditions: read-out: NEU3 IC50; human NEU3
pIC50: −log10 of the molar value.
// values below are reported pIC50
observation_type: pIC50

>>> print(df.to_string())
                                   molecule  reported_result
0  CCOC(OCC)c1cn(C[C@@H](O)[C@@H](O)[C@@H]2OC(C(=O)O)=C[C@H](O)[C@H]2NC(C)=O)nn1 [Compound 19]             3.89
1  CC(=O)N[C@H]1C([C@@H](O)[C@@H](O)Cn2cc(CO)nn2)OC(C(=O)O)=C[C@@H]1O (stereo partly drawn) [Compound 54]             4.10
2  CCOc1cn(C[C@H](O)[C@H](O)C2OC(C(=O)O)=C[C@H](O)[C@H]2NC(C)=O)nn1 (stereo partly drawn) [Compound 52]             4.05

Each recorded value in this set is attributed to patent US20250144172A1.
